test system: SNB-75 CNS; experiment: NCI tumour cell line growth inhibition, 48 h
Let's look at some compounds and their measured TGI.

compound: CN1C2CCC1C(CO)C(=O)C2 (stereo not given)
system: SNB-75 CNS
censoring sign: >
TGI (µM): 100
--
compound: CC1CCc2sc3[nH]c(=S)n(C)c(=O)c3c2C1 (stereo not given)
system: SNB-75 CNS
censoring sign: >
TGI (µM): 100
--
compound: Brc1ccc(/C(N=N/C(=N\Sc2ccccc2)c2ccc(Br)cc2)=N/Sc2ccccc2)cc1
system: SNB-75 CNS
censoring sign: >
TGI (µM): 100
--
compound: Fc1ccc(OCc2ccc3nc(-c4ccccc4)c(Cl)nc3c2)cc1
system: SNB-75 CNS
censoring sign: =
TGI (µM): 42.8
--
compound: CC1(C)Oc2ccccc2N2O[C@@H]3C(=O)N(c4ccccc4)C(=O)[C@@H]3C21c1ccccc1 (stereo not given in full)
system: SNB-75 CNS
censoring sign: =
TGI (µM): 35.3
--
compound: COC(=O)Cc1cc(=O)oc2c1C(=O)CCC2
system: SNB-75 CNS
censoring sign: >
TGI (µM): 100
--
compound: CCOP(=O)(CC1OC(CO)C(O)C1O)OCC (stereo not given)
system: SNB-75 CNS
censoring sign: >
TGI (µM): 100
--
compound: O=C1c2cccnc2C(=O)c2c1nc1ccccc1c2-c1ccc2c3c(nc4ccccc42)C(=O)c2cccnc2-c13
system: SNB-75 CNS
censoring sign: =
TGI (µM): 8.28
--
compound: Oc1ccc(C[C@@H]2CN[C@H](Cc3ccc(O)c(Br)c3)CN2)cc1
system: SNB-75 CNS
censoring sign: >
TGI (µM): 100
--
compound: Cc1ccc2nc(Nc3ccccc3C)c(Nc3ccccc3C)nc2c1
system: SNB-75 CNS
censoring sign: >
TGI (µM): 96.6
--
compound: C/C(=N\O)[C@H]1CC[C@@]2(C)[C@@H]3CC[C@H]4C(C)(C)/C(=N/O)CC[C@@]45CC35CC[C@]12C (stereo not given in full)
system: SNB-75 CNS
censoring sign: =
TGI (µM): 14.8
--
compound: COc1cccc(Nc2nc3c([nH]2)c(=O)n(C)c(=O)n3C)c1
system: SNB-75 CNS
censoring sign: >
TGI (µM): 10
--
compound: O=C1OC(c2ccc(Cl)c3ccccc23)c2ccccc21 (stereo not given)
system: SNB-75 CNS
censoring sign: =
TGI (µM): 51.1
--
compound: CN1CCN(CCCOc2ccc3ncnc(Nc4ccc(Oc5cccc(F)c5)c(Cl)c4)c3c2)CC1
system: SNB-75 CNS
censoring sign: =
TGI (µM): 2.75
--
compound: CC12O[Te]34OC1(C)C(C)(O3)C2(C)O4
system: SNB-75 CNS
censoring sign: >
TGI (µM): 8.75
